system-under-test: T1, full-length untagged human GPNMB expressed on cells (human, UniProt Q14956 23-572)
T1 sequence: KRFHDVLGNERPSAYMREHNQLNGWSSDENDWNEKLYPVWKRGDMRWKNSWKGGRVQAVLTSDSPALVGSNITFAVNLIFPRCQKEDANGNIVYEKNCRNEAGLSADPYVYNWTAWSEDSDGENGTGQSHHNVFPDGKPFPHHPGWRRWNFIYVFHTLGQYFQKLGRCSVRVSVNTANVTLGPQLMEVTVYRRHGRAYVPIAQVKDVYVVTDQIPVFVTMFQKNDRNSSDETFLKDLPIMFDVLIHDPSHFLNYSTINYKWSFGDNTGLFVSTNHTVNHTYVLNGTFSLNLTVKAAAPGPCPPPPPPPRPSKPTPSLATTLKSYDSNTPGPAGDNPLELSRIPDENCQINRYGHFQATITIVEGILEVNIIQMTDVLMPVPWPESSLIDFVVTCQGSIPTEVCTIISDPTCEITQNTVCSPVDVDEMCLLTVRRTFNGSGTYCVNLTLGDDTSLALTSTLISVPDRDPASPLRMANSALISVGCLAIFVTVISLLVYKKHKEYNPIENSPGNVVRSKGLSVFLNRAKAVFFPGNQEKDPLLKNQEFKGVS
test-summary: cell-based or functional assay
Overview of reported PDL1 (FoB) across a group of binders:
Give the value in FoB but do not write FoB after it.

binder	test-value
anti-GPNMB antibody GPN-11 (antibody, human IgG1, V domains shown, chimeric) VH: QVQLQQPGAELVKPGASVKLSCKASGYTFTSYWMHWVKQRPGQGLEWIGEINSSNGRTNYNEKFKTKATLTVDRSSSTAYMQLSSLTSEDSAVYYCARLGYYSGSPYPYYAMDCWGQGTSVTVSS VL: DIQMTQSPASLSVSVGETVTITCRASENIYSNLAWYQQKQGKSPQLLVYAATNLADGVPSRFSGSGSGTQYSLKINSLQSEDFGSYYCQHFWNTPPTFGGGTKLEIK	1.64

[Q] So what does the record say about PDL1 (FoB) for anti-GPNMB antibody GPN-30 (antibody, human IgG1, V domains shown, chimeric) VH: EVQLQQSGPELVNPGASVRISCKASGYSFTGYYMNWVKQSPEKSLEWIGEINPNTGFTTYNQNFKAKATLTVDKSSSTAYIQLKSLTSEDSAVYYCTRPSPSFDYWGQGTTLTVSS VL: DIQMTQSPSSLSASLGERGSLTCRASQEISGHLSWLQQKPDGTIKRLIYAASTLDSGVPKRFSGSRSGSDYSLTISSLESEDFADYYCLQYASYPYTFGGGTKLEIK ?
[A] 1.64

[Q] So what does the record say about PDL1 (FoB) for anti-GPNMB antibody GPN-48 (antibody, human IgG1, V domains shown, chimeric) VH: QVQLQQSGPELVKPGASVKLSCRASGYGFSSFWMNWVKQRPGKGLEWIGRIYPGKGDTLYNGKFKDKATLTADESSSTAYMQLSSLTSEDSAVYFCARSIYYYDYWYFDVWDTGTTVTVSS VL: DIVMTQSHKFMSTSVGDRVNITCKASQDVNSAIAWYQQKPGQSPKLLIYSASYRFIGVPDRFTGSGSGTGFTFTISSVQAEDLAVYYCQQHYTTPLTFGAGTKLELK ?
[A] 1.14

[Q] So what does the record say about PDL1 (FoB) for anti-GPNMB antibody GPN-06 (antibody, human IgG1, V domains shown, chimeric) VH: QVQLQQSGAELVKPGASVKLSCKASGYTFTNYYMYWVKQRPGQGLEWIGEINTRNGGTNFNEKFKSKATLTVDKSSSTAYMQLSSLTSEDSAVYYCTTGFAYWGQGTLVTVSA VL: DIQMTQSPASLSASVGETVTITCRASENIYSYLVWYQQNQGKSPQLLVYNAKTLAEGVPSRFSGSGSGTQFSLKINSLQPEDFGTYYCQHHYGTPFTFGSGTKLEIK ?
[A] 1.61
